Target or system Carbonic anhydrase 13 (Mus musculus); recorded quantity pKi.
# reply with the number alone; pKi is -log10 of concentration in mol/L

## Input Fill in: pKi of `Nc1ccc(S(=O)(=O)NCc2ccc(S(N)(=O)=O)cc2)cc1` is ___
## Output 8.70

## Input Another: `Nc1ccc(S(=O)(=O)NCCc2ccc(S(N)(=O)=O)cc2)cc1`
## Output 8.72
